These measurements were taken from patent US6737383B1.

Known Crabgrass plant response rating (0 to 10 scale) of a selection of compounds
tested on: crabgrass; test: Test B pre/postemergence crabgrass; assay type: in vivo, Digitaria sanguinalis; details: Preemergence, Rate 125 g/ha
Just the number, please, no unit attached.

{"columns": ["Compound", "Measurement"],
 "data": [
  ["CCN(C(=O)n1oc(=O)n(C(C)C)c1=O)C1CCCCC1 [Compound 309]", 1],
  ["CC1CC1n1c(=O)on(C(=O)N(c2ccc(F)cc2)C(C)C)c1=O (stereo not drawn) [Compound 371]", 10]
]}

Turning now to a further compound:
Recorded Crabgrass plant response rating (0 to 10 scale) of COCC(C)n1c(=O)on(C(=O)N(c2ccc(F)cc2F)C(C)C)c1=O (stereo not drawn) [Compound 357] , please.
9

----------
Known Corn plant response rating of a selection of compounds
Tested on: corn
Experiment: Test B pre/postemergence corn
Format: in vivo, Zea mays
Conditions: Preemergence, Rate 250 g/ha; scale of 0 to 10 where 0 is no effect and 10 is complete control
Method: […] At the same time, these crop and weed species were also treated with postemergence applications of test chemicals formulated in the same manner. […] Treated plants and controls were maintained in a greenhouse for twelve to sixteen days, after which all species were compared to controls and visually evaluated. […]
Just the number, please, no unit attached.

{"columns": ["Compound", "Corn plant response rating"],
 "data": [
  ["CCOC(=O)C(C)N(C(=O)n1oc(=O)n(-c2ccccc2C)c1=O)c1ccc(F)cc1 (centres unmarked)", 0],
  ["CC1CC1n1c(=O)on(C(=O)N(c2ccc(F)cc2)C(C)C)c1=O (centres unmarked)", 2],
  ["CCN(C(=O)n1oc(=O)n(C2CC2)c1=O)C1CCCCC1", 0],
  ["CC1CC1n1c(=O)on(C(=O)N(c2ccc(F)cc2F)C(C)C)c1=O (centres unmarked)", 9]
]}

Turning now to a further compound:
Recorded Corn plant response rating of "CC(C)N(C(=O)n1oc(=O)n(C)c1=O)c1ccc(F)cc1F" , please.
7

----------
test system: blackgrass; test: Test B pre/postemergence blackgrass; assay type: in vivo, Alopecurus myosuroides; details: Preemergence, Rate 500 g/ha; scale 0 to 10, 0 is no effect, 10 is complete control
Property Measured: Blackgrass plant response rating
Just the number, please, no unit attached.

Known results for compounds:
{"columns": ["Compound", "Property Measured", "Measurement"],
 "data": [
  ["CC[Si](C)(C)Cn1c(=O)on(C(=O)N(c2ccc(Cl)cc2)C(C)C)c1=O [Compound 460]", "Blackgrass plant response rating", 3],
  ["COC(OC)C(C)n1c(=O)on(C(=O)N(c2ccc(F)cc2)C(C)C)c1=O (centres unmarked) [Compound 471]", "Blackgrass plant response rating", 10],
  ["CC(C)N(C(=O)n1oc(=O)n(C(C)C#N)c1=O)c1ccccc1 (centres unmarked) [Compound 435]", "Blackgrass plant response rating", 2],
  ["CC(C)N(C(=O)n1oc(=O)n(CC2(C)COC2)c1=O)c1ccccc1 [Compound 420]", "Blackgrass plant response rating", 10]
]}

Recorded Blackgrass plant response rating of CCOP(=O)(Cn1c(=O)on(C(=O)N(c2ccccc2)C(C)C)c1=O)OCC [Compound 447] , please.
0

----------
tested on: sugar beet; assay: Test B pre/postemergence sugar beet; format: in vivo, Beta vulgaris; conditions: Postemergence, Rate 125 g/ha; scale 0 to 10, 0 is no effect, 10 is complete control
Known Plant response rating, Sugarbeets of a selection of compounds
Just the number, please, no unit attached.

{"columns": ["Compound", "Plant response rating, Sugarbeets"],
 "data": [
  ["CC(C)N(C(=O)n1oc(=O)n(CC2CCCO2)c1=O)c1ccc(F)cc1 (centres unmarked) [Compound 343]", 0]
]}

Recorded Plant response rating, Sugarbeets of CC1CC1n1c(=O)on(C(=O)N(c2ccc(F)cc2F)C(C)C)c1=O (centres unmarked) [Compound 372] , please.
2

Would you kindly repeat that for CC(C)N(C(=O)n1oc(=O)n(C2CCC2)c1=O)c1ccc(F)cc1F [Compound 351] ?
0

Would you kindly repeat that for CCOC(=O)C(C)N(C(=O)n1oc(=O)n(C)c1=O)c1ccc(F)cc1 (centres unmarked) [Compound 365] ?
0

Would you kindly repeat that for COCC(C)n1c(=O)on(C(=O)N(c2ccc(F)cc2F)C(C)C)c1=O (centres unmarked) [Compound 357] ?
0
